# Assay text: Selectivity ratio of IC50 for african green monkey Vero cells to IC50 for human Jurkat cells
# Type: ADME, cell-based
# Condition info: Vero cells versus Jurkat cells, read-out: Ratio IC50
Value type: selectivity ratio
Numbers only.

# Compound structure, Readout value
data = [
    ("CC(C)C1=CC(=O)C2=C(CC[C@H]3[C@](C)(CO)CCC[C@]23C)C1=O", 5.46),
    ("COC(=O)[C@]1(C)CCC[C@]2(C)c3ccc(C(C)C)c(O)c3CC[C@@H]12", 2.59),
    ("CC(C)C1=CC(=O)C2=C(CC[C@H]3[C@](C)(C(=O)O)CCC[C@]23C)C1=O", 8.96),
    ("CC(C)c1ccc2c(c1O)CC[C@H]1[C@](C)(CO)CCC[C@]21C", 2.3),
    ("COC(=O)[C@]1(C)CCC[C@]2(C)C3=C(CC[C@@H]12)C(=O)C(C(C)C)=CC3=O", 2.34),
]

Attention now turns to another entry.
Request: What value of selectivity ratio has been recorded for this entry: CC(C)c1ccc2c(c1O)CC[C@H]1[C@](C)(C(=O)O)CCC[C@]21C
Result: 3.09
